From: patent US20180237497A1

Biological target: T1, human IGF2^1-67 (mature insulin-like growth factor 2) (human, UniProt P01344 25-91, biotinylated (site not stated) where immobilised on the chip (Tables 1-4))
T1 construct: mature; also called mature IGF2; biotinylated IGF2
T1 sequence (P01344 25-91): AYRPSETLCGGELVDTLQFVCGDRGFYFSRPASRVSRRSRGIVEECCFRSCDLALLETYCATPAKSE
Assay: SPR kinetic, biotin-IGF2 on chip, pH 6.5
Readout Type: koff (s⁻¹)

Binder | Readout Type | Measured Number
domain 11^AB5 P1597H S1602H (receptor, See m5) MKSNEHDDCQVTNPSTGHLFDLSSLSGRAGFTAAYAKGWGVYMSICGENENCPPGVGACFGQTRISVGKANKRLRYVDQVLQLVYKDGSHCPSKHGLSYKSVISFVCRPEAGPTNRPMLISLDKQTCTLFFSWHTPLACEQATECSV | koff | 0.0029
domain 11^AB3 Q1569R P1597H S1602H G1603K (receptor, See m5) MKSNEHDDCQVTNPSTGHLFDLSSLSGRAGFTAAYSKSGVVYMSICGENENCPPGVGACFGRTRISVGKANKRLRYVDQVLQLVYKDGSHCPSKHKLSYKSVISFVCRPEAGPTNRPMLISLDKQTCTLFFSWHTPLACEQATECSV | koff | 0.0087
IGF2R domain 11^AB3 (receptor, His6-tagged soluble domain 11; also called domain 11^E1544K, K1545S, L1547V; 1542YSKSGV1547) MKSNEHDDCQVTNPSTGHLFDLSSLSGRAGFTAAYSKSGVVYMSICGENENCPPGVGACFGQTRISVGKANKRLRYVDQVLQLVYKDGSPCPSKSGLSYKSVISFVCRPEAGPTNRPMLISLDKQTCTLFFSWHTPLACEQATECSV | koff | 0.0381
domain 11^AB5 Q1569R P1597H (receptor, See m5) MKSNEHDDCQVTNPSTGHLFDLSSLSGRAGFTAAYAKGWGVYMSICGENENCPPGVGACFGRTRISVGKANKRLRYVDQVLQLVYKDGSHCPSKSGLSYKSVISFVCRPEAGPTNRPMLISLDKQTCTLFFSWHTPLACEQATECSV | koff | 0.0034
